Data provenance is the NIST ThermoML archive (doi:10.1021/je0496950).

Quick reference: mass density of the listed items.
- Test summary: mn = molality of the nth substance listed, in mol/kg
- Condition info: 288.13 K; 101 kPa; Liquid; m2 = 0

Compound | mass density / kg/m3
CC#N [acetonitrile] + [O-][Cl+3]([O-])([O-])[O-].[O-][Cl+3]([O-])([O-])[O-].[Zn+2] | 787.312
CC#N [acetonitrile] + [Cu+2].[O-][Cl+3]([O-])([O-])[O-].[O-][Cl+3]([O-])([O-])[O-] | 787.308
CC#N [acetonitrile] + [Co+2].[O-][Cl+3]([O-])([O-])[O-].[O-][Cl+3]([O-])([O-])[O-] | 787.307
CC#N [acetonitrile] + [Ni+2].[O-][Cl+3]([O-])([O-])[O-].[O-][Cl+3]([O-])([O-])[O-] | 787.307

* * *

Quick reference: mass density of the listed items.
- Test summary: mn = molality of the nth substance listed, in mol/kg
- Condition info: 323.15 K; 101 kPa; Liquid; m2 = 0

Compound | mass density (kg/m3)
CC#N [acetonitrile] + [Co+2].[O-][Cl+3]([O-])([O-])[O-].[O-][Cl+3]([O-])([O-])[O-] | 749.107
CC#N [acetonitrile] + [Ni+2].[O-][Cl+3]([O-])([O-])[O-].[O-][Cl+3]([O-])([O-])[O-] | 749.068
CC#N [acetonitrile] + [O-][Cl+3]([O-])([O-])[O-].[O-][Cl+3]([O-])([O-])[O-].[Zn+2] | 749.07
CC#N [acetonitrile] + [Mn+2].[O-][Cl+3]([O-])([O-])[O-].[O-][Cl+3]([O-])([O-])[O-] | 749.07
CC#N [acetonitrile] + [Cu+2].[O-][Cl+3]([O-])([O-])[O-].[O-][Cl+3]([O-])([O-])[O-] | 749.067

* * *

- Test summary: mn = molality of the nth substance listed, in mol/kg
- Condition info: 298.15 K; 101 kPa; Liquid; m2 = 0

Compound | Unit abbreviation | mass density
CC#N [acetonitrile] + [Co+2].[O-][Cl+3]([O-])([O-])[O-].[O-][Cl+3]([O-])([O-])[O-] | kg/m3 | 776.535
CC#N [acetonitrile] + [O-][Cl+3]([O-])([O-])[O-].[O-][Cl+3]([O-])([O-])[O-].[Zn+2] | kg/m3 | 776.535
CC#N [acetonitrile] + [Ni+2].[O-][Cl+3]([O-])([O-])[O-].[O-][Cl+3]([O-])([O-])[O-] | kg/m3 | 776.53
CC#N [acetonitrile] + [Mn+2].[O-][Cl+3]([O-])([O-])[O-].[O-][Cl+3]([O-])([O-])[O-] | kg/m3 | 776.531
CC#N [acetonitrile] + [Cu+2].[O-][Cl+3]([O-])([O-])[O-].[O-][Cl+3]([O-])([O-])[O-] | kg/m3 | 776.532

* * *

- Test summary: mn = molality of the nth substance listed, in mol/kg
- Condition info: 308.15 K; 101 kPa; Liquid; m2 = 0
Quick reference: mass density of the listed items.
Measured parameter: mass density (kg/m3)

Molecule | Measured result
CC#N [acetonitrile] + [Cu+2].[O-][Cl+3]([O-])([O-])[O-].[O-][Cl+3]([O-])([O-])[O-] | 765.645
CC#N [acetonitrile] + [O-][Cl+3]([O-])([O-])[O-].[O-][Cl+3]([O-])([O-])[O-].[Zn+2] | 765.649
CC#N [acetonitrile] + [Co+2].[O-][Cl+3]([O-])([O-])[O-].[O-][Cl+3]([O-])([O-])[O-] | 765.664
CC#N [acetonitrile] + [Ni+2].[O-][Cl+3]([O-])([O-])[O-].[O-][Cl+3]([O-])([O-])[O-] | 765.645
CC#N [acetonitrile] + [Mn+2].[O-][Cl+3]([O-])([O-])[O-].[O-][Cl+3]([O-])([O-])[O-] | 765.645

* * *

Quick reference: mass density of the listed items.
- Test summary: mn = molality of the nth substance listed, in mol/kg
- Condition info: 313.15 K; 101 kPa; Liquid; m2 = 0
Measured parameter: mass density (kg/m3)

Molecule | Unit abbreviation | Measured result
CC#N [acetonitrile] + [Co+2].[O-][Cl+3]([O-])([O-])[O-].[O-][Cl+3]([O-])([O-])[O-] | kg/m3 | 760.181
CC#N [acetonitrile] + [Ni+2].[O-][Cl+3]([O-])([O-])[O-].[O-][Cl+3]([O-])([O-])[O-] | kg/m3 | 760.155
CC#N [acetonitrile] + [Mn+2].[O-][Cl+3]([O-])([O-])[O-].[O-][Cl+3]([O-])([O-])[O-] | kg/m3 | 760.156
CC#N [acetonitrile] + [O-][Cl+3]([O-])([O-])[O-].[O-][Cl+3]([O-])([O-])[O-].[Zn+2] | kg/m3 | 760.158
CC#N [acetonitrile] + [Cu+2].[O-][Cl+3]([O-])([O-])[O-].[O-][Cl+3]([O-])([O-])[O-] | kg/m3 | 760.155

* * *

- Test summary: mn = molality of the nth substance listed, in mol/kg
- Condition info: 303.15 K; 101 kPa; Liquid; m2 = 0

Compound | Unit abbreviation | mass density
CC#N [acetonitrile] + [O-][Cl+3]([O-])([O-])[O-].[O-][Cl+3]([O-])([O-])[O-].[Zn+2] | kg/m3 | 771.106
CC#N [acetonitrile] + [Ni+2].[O-][Cl+3]([O-])([O-])[O-].[O-][Cl+3]([O-])([O-])[O-] | kg/m3 | 771.101
CC#N [acetonitrile] + [Cu+2].[O-][Cl+3]([O-])([O-])[O-].[O-][Cl+3]([O-])([O-])[O-] | kg/m3 | 771.102
CC#N [acetonitrile] + [Co+2].[O-][Cl+3]([O-])([O-])[O-].[O-][Cl+3]([O-])([O-])[O-] | kg/m3 | 771.114
CC#N [acetonitrile] + [Mn+2].[O-][Cl+3]([O-])([O-])[O-].[O-][Cl+3]([O-])([O-])[O-] | kg/m3 | 771.102

* * *

- Test summary: mn = molality of the nth substance listed, in mol/kg
- Condition info: 293.15 K; 101 kPa; Liquid; m2 = 0
Quick reference: mass density of the listed items.

Compound | mass density [kg/m3]
CC#N [acetonitrile] + [Cu+2].[O-][Cl+3]([O-])([O-])[O-].[O-][Cl+3]([O-])([O-])[O-] | 781.932
CC#N [acetonitrile] + [Mn+2].[O-][Cl+3]([O-])([O-])[O-].[O-][Cl+3]([O-])([O-])[O-] | 781.932
CC#N [acetonitrile] + [O-][Cl+3]([O-])([O-])[O-].[O-][Cl+3]([O-])([O-])[O-].[Zn+2] | 781.934
CC#N [acetonitrile] + [Co+2].[O-][Cl+3]([O-])([O-])[O-].[O-][Cl+3]([O-])([O-])[O-] | 781.933
CC#N [acetonitrile] + [Ni+2].[O-][Cl+3]([O-])([O-])[O-].[O-][Cl+3]([O-])([O-])[O-] | 781.93
